Can you tell me emission maximum for the items I'm about to list?
- protocolNotes: solvent given as SMILES
- conditionsUsed: in ClCCl
The figure you give is taken to be in nm; do not add the unit.

Request: What value of emission maximum has been reported for the following molecule? "N#Cc1cnc(-c2c3ccccc3c(-c3ncc(C#N)cn3)c3ccccc23)nc1"
Response: 500

Request: Entry "COc1cc(-c2cc(-c3ccc(C)cc3)nc3c(C#N)c(N4CCCC4)nc(N)c23)cc(OC)c1OC" please
Response: 515

Request: Entry "CC(C)(C)c1ccc(N(c2ccc(C(C)(C)C)cc2)c2cc(N(c3ccc(C(C)(C)C)cc3)c3ccc(C(C)(C)C)cc3)c3ccc4cc(C(C)(C)C)cc5ccc2c3c54)cc1" please
Response: 491

Origin of the recorded values: the Deep4Chem optical property database
